These entries and their values trace back to ChEMBL document CHEMBL2434964.

# experiment: Cytotoxicity against human cells Meso2 assessed as growth inhibition after 72 hrs by MTS assay
# Format: functional, cell-based
# experimental_setup: Meso2, 72 h
measurement_type: IC50 (µM)

Cn1cc(-c2nc(-c3cn(C)c4ncccc34)cs2)c2ccccc21 :: 16.8
Cn1cc(-c2csc(-c3c[nH]c4ccc(F)cc34)n2)c2cccnc21 :: 13.3
Cn1cc(-c2csc(-c3c[nH]c4ccccc34)n2)c2cccnc21 :: 4.11
Cn1cc(-c2nc(-c3c[nH]c4ncccc34)cs2)c2cc(F)ccc21 :: 25.1
Cn1cc(-c2nc(-c3cn(C)c4ncccc34)cs2)c2cc(F)ccc21 :: 4.85
